target: Calcium-dependent protein kinase 4 (Plasmodium falciparum (isolate 3D7)) (UniProt Q8IBS5); test: PfCDPK4 kinase inhibitors, biochemical, TCAMS library (AID 1159588); settings: recombinant PfCDPK4, Kinase-Glo ATP depletion luminescence
Sequence (Q8IBS5 whole entry, looked up): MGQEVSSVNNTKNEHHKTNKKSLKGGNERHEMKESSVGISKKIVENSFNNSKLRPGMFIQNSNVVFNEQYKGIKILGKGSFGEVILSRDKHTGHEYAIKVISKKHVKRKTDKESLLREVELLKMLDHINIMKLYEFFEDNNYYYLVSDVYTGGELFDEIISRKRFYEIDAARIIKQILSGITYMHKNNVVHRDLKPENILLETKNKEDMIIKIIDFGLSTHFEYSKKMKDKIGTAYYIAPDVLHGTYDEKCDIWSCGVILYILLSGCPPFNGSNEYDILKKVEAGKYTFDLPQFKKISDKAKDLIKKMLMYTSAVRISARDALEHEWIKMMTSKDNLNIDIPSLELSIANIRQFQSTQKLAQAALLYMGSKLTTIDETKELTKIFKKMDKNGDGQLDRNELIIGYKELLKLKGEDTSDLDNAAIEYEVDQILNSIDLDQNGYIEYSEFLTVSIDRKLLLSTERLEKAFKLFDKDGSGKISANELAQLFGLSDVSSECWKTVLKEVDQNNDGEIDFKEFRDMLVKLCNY
metric.name: IC50

In the examples that follow, each entry is paired with its recorded IC50.
>  <structure.string>
CCn1c(-c2nonc2N)nc2c(-c3cccc(NC(=O)Nc4ccc(C#N)cc4)c3)ncc(OCCCN)c21

>  <IC50>
84 nM

$$$$
>  <structure.string>
O=C(Nc1c(F)cccc1F)c1cccc(-c2nn3ccccc3c2-c2ccnc(Nc3cccc(-c4cnco4)c3)n2)c1

>  <IC50>
134 nM

$$$$
>  <structure.string>
O=c1[nH]ccc2nc(N[C@@H]3CCNC3)nc(Nc3cc(Cl)cc(Cl)c3)c12

>  <IC50>
446 nM

$$$$

Then this compound:
Q. Supply reported IC50 belonging to this compound: `COc1cc(Nc2nccc(-c3c(-c4cccc(NC(=O)c5c(F)cccc5F)c4)nn4ccccc34)n2)cc(OC)c1OC`
A. 77 nM
